target: KRasG12C (M1-K169, biotinylated on the N-terminus) (Homo sapiens (Human), UniProt P01116, G12C); assay: Covalent competition assay (scintillation proximity assay, competition with radiolabeled covalent probe Compound B); assay type: binding; conditions: in vitro KRASG12C activity; 10 nM KRasG12C:GDP, 25 nM radio-ligand and 475 nM unlabelled ligand, incubated 2 hours; read-out: Covalent Competition Assay IC50
pIC50: −log10 of the molar value.
If the reported pIC50 equals or exceeds 5, assign t. If not, assign f.

Answered cases to consult:
[
  {
    "compound": "C=CC(=O)N1CC2(CC(n3nc(-c4cnn5c4CCC5)c(-c4c(Cl)c(C)cc5[nH]ncc45)c3C)C2)C1 (single isomer, unassigned) [Example 34b]",
    "groupLabel": "f"
  },
  {
    "compound": "C=CC(=O)N1CC2(CC(n3nc(-c4ccc5c(c4)CC(=O)N5C)c(-c4c(Cl)c(C)cc5[nH]ncc45)c3C)C2)C1 (single isomer, unassigned) [Example 24a]",
    "groupLabel": "t"
  },
  {
    "compound": "C=CC(=O)N1CC2(CC(n3nc(-c4ccc5c(c4)CN(C)C5)c(-c4c(Cl)c(C)cc5[nH]ncc45)c3C)C2)C1 (single isomer, unassigned) [Example 75b]",
    "groupLabel": "f"
  },
  {
    "compound": "C=CC(=O)N1CC2(CC(n3nc(-c4ccc5[nH]ncc5c4)c(-c4c(Cl)c(C)cc5[nH]ncc45)c3C)C2)C1 (single isomer, unassigned) [Example 12b]",
    "groupLabel": "t"
  },
  {
    "compound": "C=CC(=O)N1CC2(CC(n3nc(-c4cccc5c4cnn5C)c(-c4c(Cl)c(C)cc5[nH]ncc45)c3C)C2)C1 (single isomer, unassigned) [Example 29a]",
    "groupLabel": "t"
  }
]

Quick check, pIC50 >= 5? C=CC(=O)N1CC2(CC(n3nc(-c4cccnc4C)c(-c4c(Cl)ccc5[nH]ncc45)c3C)C2)C1 (single isomer, unassigned) [Example 89b]
f

Quick check, pIC50 >= 5? C=CC(=O)N1CC2(CC(n3nc(-c4ccc(O)cc4)c(-c4c(Cl)c(C)cc5[nH]ncc45)c3C)C2)C1 (single isomer, unassigned) [Example 57a]
t

Quick check, pIC50 >= 5? C=CC(=O)N1CC2(CC(n3nc(-c4ccnc(C)c4)c(-c4c(Cl)ccc5[nH]ncc45)c3C)C2)C1 (single isomer, unassigned) [Example 28b]
f

Quick check, pIC50 >= 5? C=CC(=O)N1CC2(CC(n3nc(-c4ccc(CO)cc4)c(-c4c(Cl)c(C)cc5[nH]ncc45)c3C)C2)C1 (single isomer, unassigned) [Example 47b]
f

Quick check, pIC50 >= 5? C=CC(=O)N1CC2(CC(n3nc(-c4ccn5ccnc5c4)c(-c4c(Cl)c(C)cc5[nH]ncc45)c3C)C2)C1 (single isomer, unassigned) [Example 33b]
f

Quick check, pIC50 >= 5? C=CC(=O)N1CC2(CC(n3nc(C4=CN5CC(C)(C)N=C5C(F)=C4)c(-c4c(Cl)c(C)cc5[nH]ncc45)c3C)C2)C1 (single isomer, unassigned) [Example 73a]
t
